assay-remarks: rescue of L929 cells from zVAD death – primary screen (AID 1377)
condition-parameters: L929 zVAD necroptosis rescue, ATP luminescence, 24 h, at 10 µM; with zVAD 60 µM unless noted
Screen size: about 220,000 compounds; about 830 (0.38%) were called active.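 How the source made its calls: active means activation, scaled between plate controls, above about 75% (limit read from the data); inactive means activation under that limit.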 The list comes from a sample in which actives are over-represented; it also holds close analogues and randomly drawn compounds.
Outcome codes: active, inactive

C=CCNC(=O)CC12CC3CC(C1)CC(CC(=O)NCC=C)(C3)C2 | inactive
COc1cc(N=Cc2c(O)[nH]c3ccccc23)cc(OC)c1OC | active
COCC(=O)N=Nc1c(O)[nH]c2ccccc12 | inactive
COC(=O)c1[nH]c2ccccc2c1NS(=O)(=O)c1ccc(OC)cc1OC | inactive
Clc1cc(-c2ccc(/C=N/n3cnnc3)o2)ccc1Br | inactive
CCOc1cc2[nH]c(=O)n(Cc3ccc(C(=O)NCCCN4CCCC4=O)cc3)c(=O)c2cc1OCC | inactive
